Hi there, I'd appreciate the recorded IC50 (M), inhibition of EGF-stimulated EGFR auto-phosphorylation in A549 cells for every entry that follows.
target: EGFR expressed on the surface of cells (A431, A549, MCF7 and other EGFR-expressing cell lines) (human, UniProt P00533 25-1210); test: cell-based or functional assay
Numbers only, in M.

Worked examples follow.
Binder	Numeric Result
A6-A5 (antibody, V domains shown) VH: QVQLVQSGAEVKKPGSSVKVSCKASGGTFRNHAYSWVRQAPGQGLEWMGWISAYNGYTHYASKLQGRVTMTTDTSTSTAYMELRSLRSDDTAVYYCARVSASYASDWSLHYYYGMDVWGQGTLVTVSS VL: QSVLTQPPSVSAAPGQEVTISCSGSNSNIGNNYVSWYQQLPGTAPKLLIYDTAERPSGIPDRFSGSKSGTSATLGITGLQTGDEADYYCSTWDSSLSAVLFGGGTKLTVL	1.1e-09
A6 (antibody, IgG1, V domains shown, also called EGFR-A6; Clone A6) VH: QVQLVQSGAEVKKPGSSVKVSCKASGGTFRNHAFSWVRQAPGQGLEWMGWISAYNGYTHYAEKLQGRVTMTTDTSTSTAYMELRSLRSDDTAVYYCARVSASYNSDWSLHYYYGMDVWGQGTTVTVSS VL: QSVLTQPPSVSAAPGQEVTISCSGSNSNIGNNYVSWYQQLPGTAPKLLIYDNNERPSGIPDRFSGSKSGTSATLGITGLQTGDEADYYCGTWDSSLSAGVFGGGTKLTVL	1.1e-09

Exercise: Fill in: IC50 (M), inhibition of EGF-stimulated EGFR auto-phosphorylation in A549 cells of A6-A7 (antibody, V domains shown) VH: QVQLVQSGAEVKKPGSSVKVSCKASGGTFRNHAYSWVRQAPGQGLEWMGWISAYNGYTHYAEKLQGRVTMTTDTSTSTAYMELRSLRSDDTAVYYCARVSAEYNSDWSVHYYYGMDVWGQGTLVTVSS VL: QSVLTQPPSVSAAPGQEVTISCSGSNSNIGPNYVSWYQQLPGTAPKLLIYDNNERPSGIPDRFSGSKSGTSATLGITGLQTGDEADYYCSTFDSSLSAAVFGGGTKLTVL is ___
Solution: 5.6e-10
